Quick reference for TGI among some compounds
Test system: SK-OV-3 ovarian
Experiment: NCI tumour cell line growth inhibition, 48 h
measure name: TGI (µM)

>  <compound>
CSC12c3cc(C)n(-c4ccc(I)cc4)c3CC(C)(C)CN1C(=O)C2Oc1ccccc1 (centres undefined)

>  <measure name>
TGI

>  <unit of measurement>
µM

>  <reported relation>
>

>  <assay result>
100

$$$$
>  <compound>
O=C(Nc1ccccc1)OCCN=c1c2ccccc2ccc2ccccc12

>  <measure name>
TGI

>  <unit of measurement>
µM

>  <reported relation>
>

>  <assay result>
100

$$$$
>  <compound>
CN1CCS(=O)(=O)NC(Cc2ccccc2)C(=O)N2CCCC2C1=O (centres undefined)

>  <measure name>
TGI

>  <unit of measurement>
µM

>  <reported relation>
>

>  <assay result>
100

$$$$
>  <compound>
CC(=O)[O-].CC(=O)[O-].O=C([CH-]C(=O)c1ccccc1)c1ccccc1.[Nd+3].[OH3+]

>  <measure name>
TGI

>  <unit of measurement>
µM

>  <reported relation>
=

>  <assay result>
90.5

$$$$
>  <compound>
O=C1CC(n2ccnc2)c2c(Cl)sc(Cl)c21 (centres undefined)

>  <measure name>
TGI

>  <unit of measurement>
µM

>  <reported relation>
>

>  <assay result>
79.5

$$$$
>  <compound>
COC(=O)C1c2cc3c(c(O)c2CCC1(C)O)C(=O)c1c(O)cc2c(c1C3=O)OC1OC2(C)C(O)C(N(C)C)C1O (centres undefined)

>  <measure name>
TGI

>  <unit of measurement>
µM

>  <reported relation>
=

>  <assay result>
15

$$$$
>  <compound>
O=c1[nH]c(=O)n([C@H]2C[C@@H](CO)[C@@H](O)C2)cc1I

>  <measure name>
TGI

>  <unit of measurement>
µM

>  <reported relation>
>

>  <assay result>
100

$$$$
>  <compound>
C/C(=C\[Si](C)(C)c1ccco1)C(C)(O)[C@H](C)O (some centres undefined)

>  <measure name>
TGI

>  <unit of measurement>
µM

>  <reported relation>
>

>  <assay result>
100

$$$$
>  <compound>
COC(=O)C(=O)C(C(=O)OC)C(=O)C(=O)Nc1cc(Cl)c(C)cc1S(=O)(=O)O (centres undefined)

>  <measure name>
TGI

>  <unit of measurement>
µM

>  <reported relation>
>

>  <assay result>
100

$$$$
>  <compound>
CCOC(=O)N1c2ccccc2N(C(=O)OCC)C1CC(=O)/C=C/c1ccccc1

>  <measure name>
TGI

>  <unit of measurement>
µM

>  <reported relation>
=

>  <assay result>
23

$$$$
>  <compound>
CC(C)C[C@H](NC(=O)[C@@H](Cc1ccccc1)n1ccc(Nc2ccccc2)cc1=O)B(O)O

>  <measure name>
TGI

>  <unit of measurement>
µM

>  <reported relation>
=

>  <assay result>
18.8

$$$$
>  <compound>
COc1cc(/C=C2\CC3C4CCC5=CC(=O)CC[C@]5(C)C4CC[C@]3(C)C2=O)ccc1OCCN1CCCC1 (some centres undefined)

>  <measure name>
TGI

>  <unit of measurement>
µM

>  <reported relation>
=

>  <assay result>
16.8

$$$$
>  <compound>
O=C(Cc1cc(O)ccc1O)NO

>  <measure name>
TGI

>  <unit of measurement>
µM

>  <reported relation>
>

>  <assay result>
100

$$$$
>  <compound>
COc1ccc2c(c1)OCC1c3cc(OC)c4ccccc4c3OC21 (centres undefined)

>  <measure name>
TGI

>  <unit of measurement>
µM

>  <reported relation>
>

>  <assay result>
100

$$$$
>  <compound>
CC(=O)OC1C(O)C(C)OC(OC2C(OC(=O)C3CCC4C(C3)OC3(CC(OC(=O)/C=C/c5ccccc5)C(C)CO3)C43CO3)OC(C)C(O)C2OC(C)=O)C1O (centres undefined)

>  <measure name>
TGI

>  <unit of measurement>
µM

>  <reported relation>
=

>  <assay result>
0.0928

$$$$
>  <compound>
Cn1c2c(c3ccccc31)CCN1C[C@@H]3CCCC[C@H]3C[C@@H]21

>  <measure name>
TGI

>  <unit of measurement>
µM

>  <reported relation>
=

>  <assay result>
25.6

$$$$
>  <compound>
CCN1CCN(Cc2ccc(NC(=O)Nc3nc(-c4cc(OC)c(OC)c(OC)c4)cs3)cc2C(F)(F)F)CC1

>  <measure name>
TGI

>  <unit of measurement>
µM

>  <reported relation>
=

>  <assay result>
3.85

$$$$
>  <compound>
CC(=O)OC(C(=O)[O][Ge]([CH3])([CH3])[CH3])c1ccccc1 (centres undefined)

>  <measure name>
TGI

>  <unit of measurement>
µM

>  <reported relation>
>

>  <assay result>
100

$$$$
>  <compound>
O=S(=O)(O)c1c(Cl)c(Cl)c(O)c2ncccc12

>  <measure name>
TGI

>  <unit of measurement>
µM

>  <reported relation>
=

>  <assay result>
25.8

$$$$
>  <compound>
CC1(C=O)CC(CCc2ccccc2)NC1Cc1ccc(O)cc1 (centres undefined)

>  <measure name>
TGI

>  <unit of measurement>
µM

>  <reported relation>
=

>  <assay result>
33.4

$$$$
>  <compound>
O=C(O)c1ccc(CSc2nc3ccccc3[nH]2)cc1

>  <measure name>
TGI

>  <unit of measurement>
µM

>  <reported relation>
>

>  <assay result>
100

$$$$
>  <compound>
COc1cccc(C(=O)NNc2nc(Cl)nc(N3CCN(C(c4ccccc4)c4ccccc4)CC3)n2)c1

>  <measure name>
TGI

>  <unit of measurement>
µM

>  <reported relation>
=

>  <assay result>
26

$$$$
>  <compound>
COc1cccc2nc(Nc3cccc(NC(=O)c4ccc(N5CCN(C)CC5)c(C(F)(F)F)c4)c3)ccc12

>  <measure name>
TGI

>  <unit of measurement>
µM

>  <reported relation>
=

>  <assay result>
6.11

$$$$
>  <compound>
CC(C)CC(N)C(=O)NC(CNC(CCC(N)=O)C(=O)NC(CC(C)C)C(=O)NC(CC(C)C)C(=O)O)Cc1ccc2ccccc2c1 (centres undefined)

>  <measure name>
TGI

>  <unit of measurement>
µM

>  <reported relation>
>

>  <assay result>
10

$$$$
>  <compound>
O=S(=O)(NCCNc1nccc(-c2c(-c3ccc(F)cc3)nc3sccn23)n1)c1ccc(O)cc1

>  <measure name>
TGI

>  <unit of measurement>
µM

>  <reported relation>
=

>  <assay result>
73

$$$$
>  <compound>
Cc1n[nH]c(=O)n1/N=C/c1ccco1

>  <measure name>
TGI

>  <unit of measurement>
µM

>  <reported relation>
>

>  <assay result>
100

$$$$
>  <compound>
COc1cc2c(Nc3ccc(-c4ccc(N)cc4)cc3)ncnc2c(OC)c1OC

>  <measure name>
TGI

>  <unit of measurement>
µM

>  <reported relation>
>

>  <assay result>
100

$$$$
>  <compound>
C1=NN2C(c3ccccc3)=NOC2C2C(c3ccccc3)=NOC12 (centres undefined)

>  <measure name>
TGI

>  <unit of measurement>
µM

>  <reported relation>
>

>  <assay result>
100

$$$$
>  <compound>
O=C1NC(=Nc2ccc(O)cc2)S/C1=C\c1cccs1

>  <measure name>
TGI

>  <unit of measurement>
µM

>  <reported relation>
>

>  <assay result>
100

$$$$
>  <compound>
CCCCCOC(=O)Nc1nc(=O)n(C2OC(C)C(O)C2O)cc1F (centres undefined)

>  <measure name>
TGI

>  <unit of measurement>
µM

>  <reported relation>
>

>  <assay result>
10000

$$$$
>  <compound>
COc1ccc2nc3c4c(nccc4c2c1)-c1ncccc1C3=O

>  <measure name>
TGI

>  <unit of measurement>
µM

>  <reported relation>
=

>  <assay result>
0.386

$$$$
>  <compound>
CN1N=C(c2ccncc2)OC1c1cccc(F)c1 (centres undefined)

>  <measure name>
TGI

>  <unit of measurement>
µM

>  <reported relation>
>

>  <assay result>
100

$$$$
>  <compound>
COc1ccccc1CNCCCN1C(=O)c2ccc3c4c(ccc(c24)C1=O)C(=O)N(CCCNCCCCNCCCN)C3=O

>  <measure name>
TGI

>  <unit of measurement>
µM

>  <reported relation>
=

>  <assay result>
11.1

$$$$
>  <compound>
COc1ccc2c(O)c1-c1c(OC)ccc(c1O)SSc1ccc(OC)c(c1O)-c1c(OC)ccc(c1O)SS2

>  <measure name>
TGI

>  <unit of measurement>
µM

>  <reported relation>
>

>  <assay result>
100

$$$$
>  <compound>
O=C1CSC(c2ccccc2)N1c1ccc(-c2ccc(-n3c(-c4ccccc4)nc4ccccc4c3=O)cc2)cc1 (centres undefined)

>  <measure name>
TGI

>  <unit of measurement>
µM

>  <reported relation>
>

>  <assay result>
100

$$$$
>  <compound>
CC(=O)Oc1ccc(C2OC(c3ccc4ccccc4c3OC(C)=O)=NN2C(C)=O)c(OC(C)=O)c1 (centres undefined)

>  <measure name>
TGI

>  <unit of measurement>
µM

>  <reported relation>
>

>  <assay result>
52.3

$$$$
>  <compound>
Cc1nn(CNc2ccc(F)c(Cl)c2)c(=S)n1/N=C/c1ccc(-c2ccc(Cl)cc2Cl)o1

>  <measure name>
TGI

>  <unit of measurement>
µM

>  <reported relation>
=

>  <assay result>
33.2

$$$$
>  <compound>
CCC1(c2ccc(OC)c(OC)c2)CCN(S(=O)(=O)c2ccc(C)cc2)C1 (centres undefined)

>  <measure name>
TGI

>  <unit of measurement>
µM

>  <reported relation>
>

>  <assay result>
100

$$$$
>  <compound>
Nc1c(C(=O)Nc2cccc(Cl)c2)sc2nc3c(cc12)C(O)CCC3 (centres undefined)

>  <measure name>
TGI

>  <unit of measurement>
µM

>  <reported relation>
=

>  <assay result>
22.2

$$$$
